Experiment: relative permittivity at zero frequency (dimensionless); xn = mol fraction of the nth substance listed
Conditions: 313.15 K; 101 kPa; Liquid; dielectric analyzer; x1 = 0.2
readout-kind: relative permittivity at zero frequency
One number for each entry.

compound: CC(O)CNCC(C)O (stereo not given) [N-(2-hydroxypropyl)-2-hydroxy-1-propanamine] + O
relative permittivity at zero frequency: 39.35
--
compound: CC(C)(N)CO [2-amino-2-methylpropan-1-ol] + O
relative permittivity at zero frequency: 46.43
--
compound: OCCN(CCO)CCO [triethanolamine] + O
relative permittivity at zero frequency: 47.23
--
compound: CN(CCO)CCO [N-methyldiethanolamine] + O
relative permittivity at zero frequency: 46.36

Consider the record given below.
Fill blank: measured relative permittivity at zero frequency of the compound OCCNCCO [diethanolamine] + O is ____.
49.58
